Catalogue of normalised cell number readings, one per entry.
# assaySummary: differential killing of epithelial or mesenchymal cells, primary screen, imaging, PC-3E GFP, TEM4-18 mCherry, co-culture (AID 1345086);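 note: cells exposed to compound for 72 h before imaging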
# experimentalSetup: imaging cell counts, measured here: epithelial PC-3E GFP cell survival, at 1 µM
Output spec: single numeric token, no unit.

# example entries with known answers
CC(=O)OCC(=O)[C@H]1CCC2C3CC=C4C[C@@H](O)CC[C@]4(C)C3CC[C@@]21C (stereo partly specified) : 0.99
C=CC(C)(C)c1[nH]c2ccccc2c1C1=C(OC)C(=O)C(c2c(C(C)(C)C=C)[nH]c3ccccc23)=C(OC)C1=O : 1.23
C[C@]12C=CC(=O)C=C1CCC1C2[C@@H](O)C[C@@]2(C)C1CC[C@]2(O)C(=O)COP(=O)(O)O (stereo partly specified) : 0.86
CC1(O)CCOC(=O)C1 (stereo unspecified) : 0.95
CO/N=C(/C(=O)NC1C(=O)N2C(C(=O)O)=C(C[N+]3(C)CCCC3)CSC12)c1csc(N)n1 (stereo unspecified) : 1.21

Now consider the entry below.
### Prompt Please report the recorded normalised cell number for `O=S(=O)(O)c1cc(N=C=S)ccc1/C=C/c1ccc(N=C=S)cc1S(=O)(=O)O` .
### Response 1.29

---

# measuredTarget: Calcium-activated potassium channel subunit alpha-1 (Homo sapiens) + Leucine-rich repeat-containing protein 26 (Homo sapiens) (UniProt Q12791+Q2I0M4)
# Sequence (Q2I0M4 whole entry, looked up, one chain of several): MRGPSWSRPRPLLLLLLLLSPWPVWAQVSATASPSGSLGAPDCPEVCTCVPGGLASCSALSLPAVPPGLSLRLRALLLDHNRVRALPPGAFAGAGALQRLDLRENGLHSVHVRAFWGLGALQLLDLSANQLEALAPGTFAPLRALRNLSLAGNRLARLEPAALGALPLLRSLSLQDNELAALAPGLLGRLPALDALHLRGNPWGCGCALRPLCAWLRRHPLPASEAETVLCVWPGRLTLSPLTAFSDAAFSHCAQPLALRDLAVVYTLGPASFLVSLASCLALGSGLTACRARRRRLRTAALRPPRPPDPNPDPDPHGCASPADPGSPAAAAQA
# assaySummary: modulators of BK channel variants, profiling panel, selectivity assay, cell-based, U2OS BacMam, thallium flux, beta subunits (AID 1259406);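 note: initial slope of Thallos dye fluorescence rise after thallium is added; log ratio against the mean of 0.3% DMSO vehicle wells on the same plate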
# experimentalSetup: F380Y/Slo1WT/gamma1, at 30 µM
Activity calls are given as the source filed them.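 Rule for the calls: active = thallium flux through the channel raised or lowered by more than 3 SD from vehicle-only wells, actives on both sides; inactive = the rest.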
Valid outcomes are listed here; reply with one: yes (1) = active, no (0) = inactive

Example entries begin here.
Cc1nc(C)c(C(=O)O)c(-c2ccsc2)c1C(=O)O : no (0)
COCCCCC(=NOCCN)c1ccc(C(F)(F)F)cc1 : no (0)
Cn1c(C(F)(F)F)nnc1S(=O)(=O)Cc1ccc(-c2csnn2)cc1 : no (0)

Here is another compound to look at.
### Prompt What outcome does the record of this test show for `CCCOc1ccccc1C=NNC(=S)Nc1ccc(C)c(C)c1` ?
### Response no (0)

---

# measuredTarget: Calcium-activated potassium channel subunit alpha-1 (Homo sapiens) + Leucine-rich repeat-containing protein 26 (Homo sapiens) (UniProt Q12791+Q2I0M4)
# assaySummary: modulators of BK channel variants, profiling panel, selectivity assay, cell-based, U2OS BacMam, thallium flux, beta subunits (AID 1259406);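 note: initial slope of Thallos dye fluorescence rise after thallium is added; log ratio against the mean of 0.3% DMSO vehicle wells on the same plate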
# experimentalSetup: F380Y/Slo1WT/gamma1, at 30 µM
The source made the active and inactive calls.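 How the source made its calls: active means thallium flux through the channel raised or lowered by more than 3 SD from vehicle-only wells, actives on both sides; inactive means the rest.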
Valid outcomes are listed here; reply with one: class 1 = active, class 0 = inactive

### Prompt What outcome does the record of this test show for `NC(=NC(=O)c1cccs1)c1cccs1` ?
### Response class 0

### Prompt Repeat with O=C(NC1CCSC1)c1ccccc1NS(=O)(=O)c1ccccc1 (configuration not stated)
### Response class 0

### Prompt Repeat with `Cc1ccccc1S(=O)(=O)NCc1ccc(N2CCN(C)CC2)cc1`
### Response class 0

### Prompt Repeat with CC(=O)OCC(OC(C)=O)C(OC(C)=O)C(OC(C)=O)C(C#N)OC(C)=O (configuration not stated)
### Response class 0

### Prompt Repeat with `CC(C)=CC(C)=NNc1c([N+](=O)[O-])cc(C(F)(F)F)cc1[N+](=O)[O-]`
### Response class 0

### Prompt Repeat with `O=c1[nH]nc(N2CCSCC2)[nH]1`
### Response class 0

### Prompt Repeat with N#CC1=C(Nc2ccccc2Cl)SC(c2ccncc2)NC1=O (configuration not stated)
### Response class 0

### Prompt Repeat with `Cc1ccc(C(=O)c2c(-c3ccccc3)cc(-c3ccccc3)c3c2C(=O)CCC3)cc1`
### Response class 0

### Prompt Repeat with O=C(NC(CO)C(O)c1ccc([N+](=O)[O-])cc1)C(Cl)Cl (configuration not stated)
### Response class 0

### Prompt Repeat with `COc1cc(C)c(/C=C/C(C)=C/C=C/C(C)=C/C(=O)O)c(C)c1C`
### Response class 1

### Prompt Repeat with `Nc1nc(Cl)nc2c1ncn2[C@@H]1O[C@H](CO)[C@@H](O)[C@H]1O`
### Response class 0

### Prompt Repeat with CC12CCC(c3c1nn(-c1ccccc1)c3C(F)(F)F)C2(C)C (configuration not stated)
### Response class 0

### Prompt Repeat with `Cc1cc(-c2nn(C)c(=O)c3ccccc23)cc(C)c1O`
### Response class 0

### Prompt Repeat with `O=C(CSCc1csc2ccccc12)NCc1ccc2c(c1)OCO2`
### Response class 1

### Prompt Repeat with CC(COc1ccccc1Cc1ccccc1)N1CCCCC1 (configuration not stated)
### Response class 0

### Prompt Repeat with `O=c1n(-c2ccccc2)c(=O)n2n1C1CCC2C1`
### Response class 0

### Prompt Repeat with `Cc1cc2c(s1)Nc1ccccc1N=C2N1CCN(C)CC1`
### Response class 0
